// data source = patent US20230286973A1

System: TNFα-FL/Gaussia Luciferase
method_description: Dox Induced TNFα-FL-Gluc Assay
Assay type: cell-based
condition_notes: 24 hr Dox induction; 293FRT/TO cells; read-out: 24 hr Dox Inducible TNFaFLGluc 293FRT/TO: Mean IC50
metric: IC50 (nM)

Recorded results for 2 compounds are shown here.
O=C(Nc1nc(/C=C/c2cn(-c3ccccc3)cn2)cs1)c1cccn1Cc1ccnc(F)c1 [Compound B104] | 4990
CC(=O)Nc1cc(F)c(N2CCC[C@@H]2c2csc(NC(=O)c3cccn3Cc3ccnc(F)c3)n2)c(F)c1 [Compound A96] | 40.5

A: COC(=O)Nc1ccc(N2CCC[C@@H]2c2csc(NC(=O)c3cc(C)cn3Cc3ccnc(F)c3)n2)cc1 [Compound A172]
B: Cc1cc(C(=O)Nc2nc([C@H]3CCCN3c3ccc(NC(=O)N(C)C)cc3)cs2)n(Cc2ccnc(F)c2)c1 [Compound A163]
C: O=C(Nc1nc(/C=C/C2CCc3ccccc3N2)cs1)c1cccn1Cc1ccncc1 (stereo not shown) [Compound B7]
q: Order these by IC50, descending, and give the full ranking. # output: labels, in the requested order
a: C, B, A
(C: 7870 nM, B: 328 nM, A: 50.4 nM)

* * *

System: TNFα-FL/Gaussia Luciferase
method_description: Dox Induced TNFα-FL-Gluc Assay
Type: cell-based
condition_notes: ratio of TNFaFLGluc IC50 to PD1ssGluc IC50
Description: Flp-In 293 T-REx™ cells were transfected with pcDNA™5/FRT/TO plasmid inserted with cDNA encoding Gaussia Luciferase fused to the 3′ end of cDNA encoding full length TNFα (amino acids 1-233). Transfected cells were selected for resistance to the selectable markers Hygromycin and Blasticidin to create a stable cell line that contained the TNFα-FL/Gaussia Luciferase cDNA insert whose expression was regulated under the T-REx™ system. […]
# 24 hr Dox Inducible TNFaFLGluc 293FRT/TO: TNF/PD1 per entry
Provide a numeric answer; units are not to be included.

Solved entries:
COc1cc(N2CCC[C@@H]2c2csc(NC(=O)c3cccn3Cc3ccnc(F)c3)n2)ccc1OC1CCN(C(C)=O)CC1 [Compound A129] | 31.6
Cc1ccc(/C=C/c2csc(NC(=O)c3cccn3Cc3ccnc(F)c3)n2)nc1F [Compound B49] | 91.4
CC(=O)N[C@@H](C)c1ccc(N2CCC[C@@H]2c2csc(NC(=O)c3cccn3Cc3ccncc3)n2)cc1 [Compound A73] | 13.2
CC(=O)N1CCC(Oc2ccc(N3CCC[C@@H]3c3csc(NC(=O)c4cccn4Cc4ccnc(F)c4)n3)cc2Cl)CC1 [Compound A140] | 25.9

Field: next molecule
q: Entry under review: C[C@H](O)c1ccc(N2CCC[C@@H]2c2csc(NC(=O)c3cccn3Cc3ccnc(F)c3)n2)cc1 [Compound A112] . Reported 24 hr Dox Inducible TNFaFLGluc 293FRT/TO: TNF/PD1?
a: 10.5

* * *

method_description: Liver Microsome Stability Assay (monkey)
condition_notes: monkey liver microsomes, with NADPH, 1.0 uM compound
metric: Liver Microsome Stability (Multiple Species): Monkey - % Remaining after 30 min w/NADPH (%)

Consider the following illustrative entries.
O=C(Nc1nc([C@H]2CCCN2c2ccc(O[C@@H]3CCOC3)cc2)cs1)c1cccn1Cc1ccncc1 | 0.62
CC(=O)NC/C=C/c1csc(NC(=O)c2cccn2Cc2ccncc2)n1 | 9.96

I: CC(=O)Nc1cc(F)c(N2CCC[C@@H]2c2csc(NC(=O)c3cccn3Cc3ccnc(F)c3)n2)c(F)c1
II: CC(=O)N[C@H](C)c1ccc(N2CCC[C@@H]2c2csc(NC(=O)c3cccn3Cc3ccnc(F)c3)n2)cc1
III: CNc1ccc(N2CCC[C@@H]2c2csc(NC(=O)c3cccn3Cc3ccncc3)n2)cc1
q: Kindly order the items shown according to Liver Microsome Stability (Multiple Species): Monkey - % Remaining after 30 min w/NADPH, from the highest value down. Provide the labels, sequenced as the question asks.
a: III, II, I
(III: 1.86%, II: 0.83%, I: 0.12%)

* * *

method_description: Liver Microsome Stability Assay (human)
condition_notes: human liver microsomes, with NADPH, 1.0 uM compound
metric: Liver Microsome Stability (Multiple Species): Human - % Remaining after 30 min w/NADPH (%)

Known Liver Microsome Stability (Multiple Species): Human - % Remaining after 30 min w/NADPH results, listed for orientation:
O=C(Nc1nc([C@H]2CCCN2c2ccccc2)cs1)c1ccc[nH]1 | 26.7
Cc1ccnc(/C=C/c2csc(NC(=O)c3cccn3Cc3ccncc3)n2)c1 [Compound E1] | 0.57
Cc1nc(/C=C/c2csc(NC(=O)c3cccn3Cc3ccncc3)n2)cn1C | 0.21

I: O=C(Nc1nc(/C=C/c2ncc(F)cc2F)cs1)c1cccn1CC1CCOCC1 [Compound D2]
II: CC(C)c1cccc2nc(/C=C/c3csc(NC(=O)c4cccn4Cc4ccnc(F)c4)n3)cn12
q: # min-compare on Liver Microsome Stability (Multiple Species): Human - % Remaining after 30 min w/NADPH between I and II In your reply, give the label of the chosen option.
a: II

* * *

method_description: Liver Microsome Stability Assay (human)
condition_notes: human liver microsomes, with NADPH, 1.0 uM compound
metric: Liver Microsome Stability (Multiple Species): Human - % Remaining after 30 min w/NADPH (%)

Solved entries:
COc1ccc(O[C@H]2CC[C@H](c3csc(NC(=O)c4cccn4Cc4ccncc4)n3)CC2)nc1 | 0.19
O=C(Nc1nc(/C=C/C2CCc3ccccc3N2)cs1)c1cccn1Cc1ccncc1 (centres unmarked) | 1.32
CCC(CC#N)Cn1cccc1C(=O)Nc1nc([C@H]2CCCN2c2ccccc2)cs1 (some centres unmarked) | 14.9

I: CC(C)n1cnc(/C=C/Cc2csc(NC(=O)c3cccn3Cc3ccnc(F)c3)n2)c1
II: O=C(Nc1nc(/C=C/c2cocn2)cs1)c1cccn1Cc1ccncc1
III: O=C(Nc1nc(/C=C/c2cn3c(n2)CCC3)cs1)c1cccn1Cc1ccncc1
IV: [2H]c1c([2H])c([2H])c(N2CCC[C@@H]2c2csc(NC(=O)c3cccn3Cc3ccnc(F)c3)n2)c([2H])c1[2H]
V: NC(=O)c1ccc(N2CCC[C@@H]2c2csc(NC(=O)c3cccn3Cc3ccnc(F)c3)n2)cc1
q: Sequence the entries by Liver Microsome Stability (Multiple Species): Human - % Remaining after 30 min w/NADPH, beginning with the highest number. Answer format: the labels, in the requested order.
a: V, IV, II, I, III

* * *

Tested on: TNFα-FL/Gaussia Luciferase
method_description: Dox Induced TNFα-FL-Gluc Assay
Assay type: cell-based
condition_notes: 24 hr Dox induction; 293FRT/TO cells; read-out: 24 hr Dox Inducible TNFaFLGluc 293FRT/TO: Mean IC50
Text: Flp-In 293 T-REx™ cells were transfected with pcDNA™5/FRT/TO plasmid inserted with cDNA encoding Gaussia Luciferase fused to the 3′ end of cDNA encoding full length TNFα (amino acids 1-233). Transfected cells were selected for resistance to the selectable markers Hygromycin and Blasticidin to create a stable cell line that contained the TNFα-FL/Gaussia Luciferase cDNA insert whose expression was regulated under the T-REx™ system. […]
metric: IC50 (µM)

Cc1ocnc1/C=C/c1csc(NC(=O)c2cccn2Cc2ccnc(F)c2)n1 | 18.8
O=C(Nc1nc([C@H]2CCCN2c2ccc(OC3CCSCC3)cc2)cs1)c1cccn1Cc1ccnc(F)c1 | 0.687

A: CC(=O)Nc1c(F)cc(N2CCC[C@@H]2c2csc(NC(=O)c3cccn3Cc3ccnc(F)c3)n2)cc1F
B: CC(=O)Nc1ccc(N2CCC[C@@H]2c2csc(NC(=O)c3cccn3Cc3ccnc(F)c3)n2)c(F)c1
q: For this pair, A and B , which shows a numerically higher IC50? Label of pick, please.
a: A

* * *

method_description: Liver Microsome Stability Assay (rat)
condition_notes: rat liver microsomes, with NADPH, 1.0 uM compound
metric: Liver Microsome Stability (Multiple Species): Rat - % Remaining after 30 min w/NADPH (%)

O=C(Nc1nc([C@H]2CCCN2c2ccccc2)cs1)c1cccn1CCCc1nnn[nH]1 | 78.7
C#CCCCCn1cccc1C(=O)Nc1nc([C@H]2CCCN2c2ccccc2)cs1 | 9.91
O=C(Nc1nc([C@H]2CCCN2c2ccc(OC3CCNCC3F)cc2)cs1)c1cccn1Cc1ccnc(F)c1 (some centres unmarked) | 64.6
O=C(Nc1nc([C@H]2CCCN2c2ccncc2)cs1)c1cccn1Cc1ccncc1 | 0.45
COc1ccc(O[C@H]2CC[C@@H](c3csc(NC(=O)c4cccn4Cc4ccncc4)n3)CC2)nc1 | 1.2

A: COc1ccc(O[C@H]2CC[C@H](c3csc(NC(=O)c4cccn4Cc4ccncc4)n3)C2)nc1
B: CC(=O)N(C)c1ccc(N2CCC[C@@H]2c2csc(NC(=O)c3cccn3Cc3ccncc3)n2)cc1
C: N#CC[C@H](O)Cn1cccc1C(=O)Nc1nc([C@H]2CCCN2c2ccccc2)cs1
q: Ascending by Liver Microsome Stability (Multiple Species): Rat - % Remaining after 30 min w/NADPH, please: list the compounds accordingly. In your reply, arrange the labels in the requested order.
a: A, B, C
